Test system: MDA-MB-435
Method: Cytotoxicity against human MDA-MB-435 cells assessed as inhibition of cell growth incubated for 72 hrs by CellTiter 96 Aqueous One Solution based assay
Format: functional
Details: MDA-MB-435, 72 h
Measurement Type: IC50 (nM)
Respond with the bare value in nM.

Answered examples (2):
Smiles Str	Unit Spec	IC50
CC(=O)O[C@H]1C(=O)[C@@]2(C)[C@H]([C@H](OC(=O)c3ccccc3)[C@]3(O)C[C@H](OC(=O)[C@H](O)[C@@H](NC(=O)c4ccccc4)c4ccccc4)C(C)=C1C3(C)C)[C@]1(OC(C)=O)CO[C@@H]1C[C@@H]2O	nM	0.52
CCCCCC[C@@H]1CCCC[C@@H](O)[C@H](C)C(=O)O[C@@H](C(C)C)C(=O)N[C@@H](Cc2ccccc2)C(=O)O1	nM	2900

Pending molecule:
Value lookup for IC50; key = "CCCCCC[C@@H]1CCCC[C@@H](O)[C@H](C)C(=O)O[C@@H]([C@H](C)CC)C(=O)N[C@@H](Cc2ccccc2)C(=O)O1"
5200
